assay: Agilent ZORBAX 300 SB-C18, 150 × 1 mm, 3.5 µm; A: water + 0.01% heptafluorobutyric acid; B: acetonitrile + 0.01% heptafluorobutyric acid; gradient (min/%B) 0/0 100/90; conditions: stereoisomer not certain
Measured endpoint: LC retention time (min)

COC(=O)C1CCCNC1=O (configuration not stated); 6.61
Cc1cccnn1; 5.91
COC(=O)CCCCCN; 7.25
CC(C)CN(CC(C)C)CC(C)C; 9.7
O=C(O)CCC(=O)Nc1ccc(Cc2ccc(NC(=O)CCC(=O)O)cc2)cc1; 9.35
CNCCC=C1c2ccccc2CCc2ccccc21; 11.7
CCC1NC(=O)NC(C)=C1C(C)=O (configuration not stated); 7.34
CCN(CC)CC(=O)Nc1c(C)cc(C)cc1C; 9.28
O=C(NCc1cccnc1)c1cccc2ccccc12; 9.17
Cc1ccc(C(=O)NC(=Cc2ccc(C(C)C)cc2)C(=O)NCc2cccnc2)cc1; 11.9

P = S=c1[nH]c(-c2ccccc2)c(-c2ccccc2)n1-c1ccccc1
Q = CCC(=O)Nc1ccc(N2CCN(C(=O)C(C)C)CC2)cc1
Quick check, higher LC retention time between P and Q ? Please reply using the label of the selected record.
P
(P: 14.4 min, Q: 9.46 min)

----------
assay: Agilent ZORBAX 300 SB-C18, 150 × 1 mm, 3.5 µm; A: water + 0.01% heptafluorobutyric acid; B: acetonitrile + 0.01% heptafluorobutyric acid; gradient (min/%B) 0/0 100/90; details: stereoisomer not certain
Measured endpoint: LC retention time (min)

O=C(NCCCCc1ccccc1)c1ccc2ccccc2n1; 17.2
CCCCCCCCCCNC(=S)Nc1ccccc1; 19.6
COc1ccc2c(c1)C(C)N1C(=O)c3cc(OC)c(OC)cc3C1O2 (stereo not drawn); 13.1
O=C1CCCc2c1[nH]c1ccc(C3CCCCC3)cc21; 18.7
NC(=O)c1ccc(NC(=S)Nc2ccccc2)cc1; 9.25

P = O=C1NN=C(c2ccccc2)CC1c1c[nH]c2ccccc12 (stereo not drawn)
Q = C1CNCCN1
# return whichever of P and Q has the smaller LC retention time Please reply using the label of the selected record.
Q

A = Cc1cc(C(=O)O)c2ccccc2n1
B = O=C(O)c1cccc(C(=O)O)n1
Quick check, higher LC retention time between A and B ? Please reply using the label of the selected record.
A
(A: 5.51 min, B: 3.12 min)

1 = CC(=O)CNC(C)(C)C(C)=O
2 = c1ccc(-c2ccc3ccccc3n2)cc1
# return whichever of 1 and 2 has the smaller LC retention time Please reply using the label of the selected record.
1

----------
experiment: Agilent ZORBAX 300 SB-C18, 150 × 1 mm, 3.5 µm; A: water + 0.01% heptafluorobutyric acid; B: acetonitrile + 0.01% heptafluorobutyric acid; gradient (min/%B) 0/0 100/90; conditions: stereoisomer not certain
Measured endpoint: LC retention time (min)

CCN1CCN(Cc2cc(C)cc(C=O)c2C)CC1; 9.37
CC1=CC(=O)C(C)(C)NC1; 6.78
CN(CCNc1ccccc1)C(N)=O; 7.86

P = N=C(N)SCCSCCSC(=N)N
Q = CN1c2ccccc2CCc2cc(C=O)ccc21
Quick check, higher LC retention time between P and Q ? Please reply using the label of the selected record.
Q

----------
test: Agilent ZORBAX 300 SB-C18, 150 × 1 mm, 3.5 µm; A: water + 0.01% heptafluorobutyric acid; B: acetonitrile + 0.01% heptafluorobutyric acid; gradient (min/%B) 0/0 100/90; details: stereoisomer not certain
Measured endpoint: LC retention time (min)

// worked examples, LC retention time included
Cn1c(=O)c2cc(C(=O)O)ccc2n(C)c1=O; 8.5
Cc1ccc2nc[nH]c2c1; 7.74
CC(C)NC(=O)C(=O)NCCCO; 6.9
CC(=O)Nc1ccc(CC(C(=O)O)c2ccccc2)cc1 (stereo not drawn); 10.6
CN(C)c1ccc(N=C2C=CC(=Nc3ccc(N(C)C)cc3)C=C2)cc1; 9.47

a = NC1CCCCCC1
b = Nc1cccc2oc3ccccc3c12
c = Cc1cc(-c2noc(C(c3ccccc3)c3ccccc3)n2)c2ccccc2n1
Sort the compounds on LC retention time; start with the lowest figure. In plain terms: list the labels in the order you were asked to.
a, b, c
(a: 7.85 min, b: 11.6 min, c: 16.9 min)

----------
assay: Agilent ZORBAX 300 SB-C18, 150 × 1 mm, 3.5 µm; A: water + 0.01% heptafluorobutyric acid; B: acetonitrile + 0.01% heptafluorobutyric acid; gradient (min/%B) 0/0 100/90; conditions: stereoisomer not certain
Measured endpoint: LC retention time (min)

COc1cc(C)c(NC(C)=O)c(C)c1; 8.85
CCOC(=O)CNc1ccccc1; 12.4
CN(C)CCN(C)CCN(C)CCN(C)C; 7.61
Cc1cc[n+](CCC(=O)O)c2ccccc12; 7.41
COC(=O)C(c1ccccc1)C1CCCCN1 (stereo unspecified); 9.49
CCC(NC(C)C)C(O)c1ccc(O)c2[nH]c(=O)ccc12 (stereo unspecified); 7.81

a = CCOC(=O)c1c(-c2ccccc2)c[nH]c1C
b = CCNc1ccccc1
c = Nc1ccc[nH]c1=O
d = Nc1cccc(S(=O)(=O)O)c1
Sort the molecules on LC retention time; start with the lowest figure. In plain terms: list the labels in the order you were asked to.
d, c, b, a
(d: 1.45 min, c: 2.98 min, b: 7.68 min, a: 13.4 min)

I = O=C1NCCN1C(=O)c1ccco1
II = CCCCCCCCCCN(C)C
# return whichever of I and II has the smaller LC retention time Please reply using the label of the selected record.
I
(I: 6.67 min, II: 12 min)

A = CCN(CC)CCn1cnc2c1c(=O)n(C)c(=O)n2C
B = CCn1ccc(C(C)C)c1-c1ccccc1
# return whichever of A and B has the smaller LC retention time Please reply using the label of the selected record.
A
(A: 7.8 min, B: 19 min)

a = Nc1c(S(=O)(=O)O)ccc2c1C(=O)c1ccccc1C2=O
b = Nc1ncccn1
c = c1ccc(-c2cc(-c3ccccc3)n(-c3ccccc3)n2)cc1
d = Cc1cccc2cc[nH]c12
Sort the molecules on LC retention time; start with the lowest figure. In plain terms: list the labels in the order you were asked to.
b, a, d, c

I = CC(C)NCCNC(C)C
II = Cc1cc(N)c2ccccc2[n+]1CCCCCCCCCC[n+]1c(C)cc(N)c2ccccc21
III = C#CCNC
Sort the molecules on LC retention time; start with the lowest figure. In plain terms: list the labels in the order you were asked to.
III, I, II
(III: 3.51 min, I: 7.16 min, II: 10.7 min)

a = Cc1ccc(CCC(=O)O)cc1N
b = CNC(=S)Nc1ccc2c(c1)CCCC2
Quick check, higher LC retention time between a and b ? Please reply using the label of the selected record.
b
(b: 12.5 min, a: 7.58 min)

----------
test: Agilent ZORBAX 300 SB-C18, 150 × 1 mm, 3.5 µm; A: water + 0.01% heptafluorobutyric acid; B: acetonitrile + 0.01% heptafluorobutyric acid; gradient (min/%B) 0/0 100/90; conditions: stereoisomer not certain
Measured endpoint: LC retention time (min)

// worked examples, LC retention time included
C=CC1CN2CCC1CC2C(O)c1ccnc2ccccc12 (centres undefined); 8.84
NCc1nccc2ccccc12; 7.87
CC(C)NCCCNC(C)C; 7.27
Cc1ccc(C=C2CN(C)CC(=Cc3ccc(C)cc3C)C2=O)c(C)c1; 13.1
Cc1ccc(C(=O)Nc2ccc3[nH]c4c(c3c2)CCCC4)cc1; 15.1
CC(C)NCCO; 5.44

a = CC(C)c1ccccc1NC(=O)CN
b = COC(=O)c1ccc(NC(=O)Nc2cccc3ccccc23)cc1
c = CC(C)C(N)C(=O)O (centres undefined)
Sort the compounds on LC retention time; start with the lowest figure. In plain terms: list the labels in the order you were asked to.
c, a, b

P = CC(=O)Oc1ccc2cccc(N(C(C)=O)C(C)=O)c2c1
Q = NC(=O)C(O)c1ccccc1 (centres undefined)
# return whichever of P and Q has the smaller LC retention time Please reply using the label of the selected record.
Q

----------
test: Agilent ZORBAX 300 SB-C18, 150 × 1 mm, 3.5 µm; A: water + 0.01% heptafluorobutyric acid; B: acetonitrile + 0.01% heptafluorobutyric acid; gradient (min/%B) 0/0 100/90; conditions: stereoisomer not certain
Measured endpoint: LC retention time (min)

A = NCC1CCCCC1
B = Cc1cccc2c1CC(C)(C)NC2=S
# return whichever of A and B has the smaller LC retention time Please reply using the label of the selected record.
A
(A: 8.08 min, B: 13.3 min)

P = Oc1ccc(-n2cccc2)cc1
Q = Cn1c(=O)n(-c2cccc(N)c2)c(=O)n1C
# return whichever of P and Q has the smaller LC retention time Please reply using the label of the selected record.
Q

I = CCOC(=O)c1[nH]c(C)c(C(=O)OCc2ccccc2)c1C
II = C=CCOc1ccccc1OCC(O)CNC(C)C (stereo not drawn)
Quick check, higher LC retention time between I and II ? Please reply using the label of the selected record.
I
